growth values, listed per item
- Tested on: COLO 205 colon
- PROTOCOL DETAILS: NCI-60 one-dose screen, 48 h (100 = growth as untreated, 0 = no growth, -100 = all killed)
- EXPERIMENTAL SETUP: 10 µM unless noted
- Experimental: Cells are grown in 96 well plates and exposed to the test compound for 48 hours. Compounds are tested at a single concentration, which is 10^-5 M for most compounds. The reported endpoint is percent growth (GI% or GIPRCNT), where numbers from 0 - 100% represent growth inhibition, and numbers from -100% - 0 represent cell death. For example, a value of 40 represents 60% growth inhibition. A value of 0 means no net growth occurred over the course of the experiment. […]
This is part of a sample that, as a whole, favours compounds with a hit. Of some 83,000 tested, about 20% had one in any assay.
Write the answer as a number in %, unit excluded.

Worked examples, 4 compounds total:
Field growth (COLO 205 colon), entry `CNC(=O)c1cc(Oc2ccc3c(c2)sc2nc(-c4ccc(Cl)cc4)cn23)ccn1` : 114

Log: COLO 205 colon, compound CCN(CC)CCCC(C)N=c1cc(Nc2cc(=NC(C)CCCN(CC)CC)c3cc(OC)ccc3o2)oc2ccc(OC)cc12 (centres undefined) , growth = -96.2

For the compound `Cc1ccc2nc(SCn3nnc4ccccc4c3=O)[nH]c2c1` , the measured growth on COLO 205 colon was 75.9

Considering `Cc1ccc2nc(-c3c(N)n[nH]c3CCCO)[nH]c(=O)c2c1` , its growth with COLO 205 colon was recorded as 105

***
# lookup: `Cc1ccc(S(=O)(=O)NCCCNc2nccc(-c3c(-c4ccccc4)nc4sccn34)n2)cc1` on COLO 205 colon, growth = 46.6

The compound `NS(=O)(=O)c1ccc(NCC(=O)Nc2ccc(-c3nc4ccccc4s3)cc2)cc1` on COLO 205 colon: growth was 98.5

Measured on COLO 205 colon, `COc1ccc(OC)c(NC(=O)c2cc(S(=O)(=O)N3CCc4ccccc43)ccc2OC)c1` has a documented growth of 87.5

Value (growth, COLO 205 colon) for record `O=C(CCCn1c(=O)c2sc3ccccc3c2n2nnc(-c3ccccc3)c12)NCCc1cnc[nH]1` = -36.8

For the compound `CC(C)[C@H](CO)Nc1nc(Nc2ccc(C(=O)NCCNS(=O)(=O)c3cccc4c(N(C)C)cccc34)c(Cl)c2)c2ncn(C(C)C)c2n1` , the measured growth on COLO 205 colon was -69.3

Fill in: COLO 205 colon growth for `COc1cc(-c2n[nH]nc2-c2ccc3c(c2)OCCO3)cc(OC)c1OC` = -85.7

Record O=C(O)C(Cc1ccccc1)N1C(=O)/C(=C/C(Cl)=C/c2ccc([N+](=O)[O-])cc2)SC1=S (centres undefined) ; system COLO 205 colon; growth = 17.4

Here `COc1ccccc1OCC(=O)Nc1sc2c(c1C(N)=O)CCC2` was tested on COLO 205 colon, and its growth came to 86.1

Data provenance is PubChem BioAssay (NCI).
